- System: ddY-strain male mice
- Assay info: Acute Toxicity Test (minimum lethal dose, oral)
- Assay type: in vivo
- Condition summary: seven days after administration
Measured quantity: MLD (minimum lethal dose)

{"Molecule": "CCn1c(=O)c2c(nc(/C=C/c3ccc(OC)c(C)c3OC)n2C)n(CC)c1=O [Compound 86]", "MLD (minimum lethal dose)": "> 300 mg/kg"}

Value of measured MLD (minimum lethal dose) for the entry CCn1c(=O)c2c(nc(/C=C/c3ccc(OC)c(Br)c3)n2C)n(CC)c1=O [Compound 114] : > 100 mg/kg

Value of measured MLD (minimum lethal dose) for the entry CCOc1ccc(/C=C/c2nc3c([nH]2)c(=O)n(CC)c(=O)n3CC)cc1 [Compound 123] : > 100 mg/kg

Value of measured MLD (minimum lethal dose) for the entry CCCOc1ccc(/C=C/c2nc3c([nH]2)c(=O)n(CCC)c(=O)n3CCC)cc1 [Compound 50] : > 100 mg/kg

Value of measured MLD (minimum lethal dose) for the entry CCn1c(=O)c2c(nc(/C=C/c3cccc(Oc4ccccc4)c3)n2C)n(CC)c1=O [Compound 192] : > 100 mg/kg

Value of measured MLD (minimum lethal dose) for the entry CCn1c(=O)c2c(nc(/C=C/c3cc(C)c(OC)cc3C)n2C)n(CC)c1=O [Compound 84] : > 300 mg/kg

Value of measured MLD (minimum lethal dose) for the entry CCCCn1c(=O)c2nc(/C=C/c3cc(OC)c(OC)c(OC)c3)[nH]c2n(CCCC)c1=O [Compound 8] : > 100 mg/kg

Value of measured MLD (minimum lethal dose) for the entry CCCn1c(=O)c2c(nc(/C=C/c3ccc(OC)c(OC)c3)n2C)n(CCC)c1=O [Compound 1] : > 300 mg/kg

Value of measured MLD (minimum lethal dose) for the entry COc1ccc(/C=C/c2nc3c([nH]2)c(=O)n(C)c(=O)n3C)c(OC)c1 [Compound 99, (E)-8-(2,4-Dimethoxystyryl)theophylline] : > 100 mg/kg

Value of measured MLD (minimum lethal dose) for the entry CCn1c(=O)c2c(nc(/C=C/c3cc(OC)cc(OC)c3)n2C)n(CC)c1=O [Compound 130] : > 300 mg/kg

Value of measured MLD (minimum lethal dose) for the entry CCn1c(=O)c2[nH]c(/C=C/c3ccc(OC)c(OC)c3OC)nc2n(CC)c1=O [Compound 79] : > 300 mg/kg

Value of measured MLD (minimum lethal dose) for the entry CCn1c(=O)c2c(nc(/C=C/c3cc(OC)c4c(c3)OCO4)n2C)n(CC)c1=O [Compound 179] : > 100 mg/kg

Value of measured MLD (minimum lethal dose) for the entry CCCn1c(=O)c2[nH]c(/C=C/c3ccc(OCC)cc3)nc2n(CCC)c1=O [Compound 48] : > 100 mg/kg

Value of measured MLD (minimum lethal dose) for the entry COc1ccc(/C=C/c2nc3c([nH]2)c(=O)n(C)c(=O)n3C)c(C)c1C [Compound 93] : > 100 mg/kg

Value of measured MLD (minimum lethal dose) for the entry CCn1c(=O)c2[nH]c(/C=C/c3ccc(O)cc3)nc2n(CC)c1=O [Compound 193] : > 100 mg/kg

Value of measured MLD (minimum lethal dose) for the entry CCCn1c(=O)c2[nH]c(/C=C/c3ccc4c(c3)OCO4)nc2n(CCC)c1=O [Compound 19] : > 300 mg/kg

----------
Recorded measurements of MLD (minimum lethal dose), one per entry
- Tested on: ddY-strain male mice
- Assay info: Acute Toxicity Test (minimum lethal dose, oral)
- Format: in vivo
- Condition summary: seven days after administration

Would you please look over these solved cases?
{"Molecule": "CCn1c(=O)c2[nH]c(C(F)=Cc3ccccc3)nc2n(CC)c1=O (stereo in doubt)", "MLD (minimum lethal dose)": "> 100 mg/kg"}
{"Molecule": "CCn1c(=O)c2c(nc(/C=C/c3cc(OC)c(OC)cc3Br)n2C)n(CC)c1=O", "MLD (minimum lethal dose)": "> 100 mg/kg"}
{"Molecule": "CCn1c(=O)c2c(nc(/C=C/c3ccc(OCc4ccccc4)cc3)n2C)n(CC)c1=O", "MLD (minimum lethal dose)": "> 100 mg/kg"}
{"Molecule": "CCCn1c(=O)c2c(nc(/C=C/c3ccc(OCOC)c(OCOC)c3)n2C)n(CCC)c1=O", "MLD (minimum lethal dose)": "> 100 mg/kg"}
{"Molecule": "CCn1c(=O)c2[nH]c(/C=C/c3cccc([N+](=O)[O-])c3)nc2n(CC)c1=O", "MLD (minimum lethal dose)": "> 100 mg/kg"}
{"Molecule": "CCCn1c(=O)c2[nH]c(/C=C/c3ccc(OC)cc3OC)nc2n(CCC)c1=O", "MLD (minimum lethal dose)": "> 100 mg/kg"}
{"Molecule": "CCn1c(=O)c2[nH]c(/C=C/c3cc(OC)c(OC)cc3Br)nc2n(CC)c1=O", "MLD (minimum lethal dose)": "> 100 mg/kg"}
{"Molecule": "CCn1c(=O)c2c(nc(/C(C)=C/c3ccccc3)n2C)n(CC)c1=O", "MLD (minimum lethal dose)": "> 300 mg/kg"}

Value of measured MLD (minimum lethal dose) for the entry CCCn1c(=O)c2c(nc(/C=C/c3ccc(OC)cc3OC)n2C)n(CCC)c1=O : > 300 mg/kg

Value of measured MLD (minimum lethal dose) for the entry CCn1c(=O)c2[nH]c(/C=C/c3cccc(OC)c3)nc2n(CC)c1=O : > 100 mg/kg

Value of measured MLD (minimum lethal dose) for the entry CCCCn1c(=O)c2c(nc(/C=C/c3cc(OC)c(OC)c(OC)c3)n2C)n(CCCC)c1=O : > 300 mg/kg

----------
- Test system: ddY-strain male mice
- Assay info: Acute Toxicity Test (minimum lethal dose, oral)
- Format: in vivo
- Condition summary: seven days after administration
Recorded measurements of MLD (minimum lethal dose), one per entry

Would you please look over these solved cases?
{"Molecule": "CCn1c(=O)c2[nH]c(/C=C/c3cc4c(cc3Br)OCO4)nc2n(CC)c1=O", "Result value": "> 100 mg/kg"}
{"Molecule": "CCn1c(=O)c2[nH]c(/C=C/c3cccc(Oc4ccccc4)c3)nc2n(CC)c1=O", "Result value": "> 100 mg/kg"}
{"Molecule": "CCCn1c(=O)c2c(nc(/C=C/c3ccc(OC)c(OC)c3)n2CC)n(CCC)c1=O", "Result value": "> 300 mg/kg"}
{"Molecule": "CCn1c(=O)c2[nH]c(/C=C/c3ccc4c(c3)OCCO4)nc2n(CC)c1=O", "Result value": "> 100 mg/kg"}
{"Molecule": "CCCn1c(=O)c2c(nc(/C=C\\c3ccc(OC)c(OC)c3)n2C)n(CCC)c1=O [Compound 47]", "Result value": "> 300 mg/kg"}

Value of measured MLD (minimum lethal dose) for the entry COc1cc(C)c(/C=C/c2nc3c(c(=O)n(C)c(=O)n3C)n2C)cc1C : > 100 mg/kg

Value of measured MLD (minimum lethal dose) for the entry CCn1c(=O)c2c(nc(/C=C/c3cccc(OC)c3[N+](=O)[O-])n2C)n(CC)c1=O : > 100 mg/kg

Value of measured MLD (minimum lethal dose) for the entry CCCn1c(=O)c2c(nc(/C=C/c3ccc4c(c3)OCCO4)n2C)n(CCC)c1=O : > 300 mg/kg

Value of measured MLD (minimum lethal dose) for the entry CCn1c(=O)c2[nH]c(/C=C/c3ccc(F)cc3)nc2n(CC)c1=O : > 100 mg/kg

Value of measured MLD (minimum lethal dose) for the entry CCn1c(=O)c2c(nc(/C=C/c3cccc(F)c3)n2C)n(CC)c1=O : > 300 mg/kg

Value of measured MLD (minimum lethal dose) for the entry COc1cc(/C=C/c2nc3c(=O)n(C)c(=O)n(C)c3[nH]2)cc(OC)c1OC : > 300 mg/kg

Value of measured MLD (minimum lethal dose) for the entry CCn1c(=O)c2[nH]c(/C=C/c3cccc(OC(F)(F)F)c3)nc2n(CC)c1=O : > 100 mg/kg

Value of measured MLD (minimum lethal dose) for the entry CCn1c(=O)c2[nH]c(/C=C/c3ccc(OC)c(F)c3)nc2n(CC)c1=O : > 100 mg/kg

Value of measured MLD (minimum lethal dose) for the entry CCCn1c(=O)c2c(nc(/C=C/c3ccc(OC)c(Br)c3)n2C)n(CCC)c1=O : > 100 mg/kg

Value of measured MLD (minimum lethal dose) for the entry CCCn1c(=O)c2[nH]c(/C=C/c3ccc(OC)c(OC)c3)nc2n(CCC)c1=S : > 100 mg/kg

Value of measured MLD (minimum lethal dose) for the entry C=CCn1c(=O)c2nc(/C=C/c3cc(OC)c(OC)c(OC)c3)[nH]c2n(CC=C)c1=O : > 300 mg/kg

Value of measured MLD (minimum lethal dose) for the entry CCn1c(=O)c2c(nc(/C=C/c3ccc(F)cc3)n2C)n(CC)c1=O : > 100 mg/kg

Value of measured MLD (minimum lethal dose) for the entry CCCOc1ccc(/C=C/c2nc3c([nH]2)c(=O)n(CC)c(=O)n3CC)cc1 : > 100 mg/kg
